Target: human GPR119 (Homo sapiens, UniProt Q8TDV5)
Construct: expressed in transfected cells; host or cells: HEK293 (transient transfection, Lipofectamine 2000)
Sequence (Q8TDV5 whole entry): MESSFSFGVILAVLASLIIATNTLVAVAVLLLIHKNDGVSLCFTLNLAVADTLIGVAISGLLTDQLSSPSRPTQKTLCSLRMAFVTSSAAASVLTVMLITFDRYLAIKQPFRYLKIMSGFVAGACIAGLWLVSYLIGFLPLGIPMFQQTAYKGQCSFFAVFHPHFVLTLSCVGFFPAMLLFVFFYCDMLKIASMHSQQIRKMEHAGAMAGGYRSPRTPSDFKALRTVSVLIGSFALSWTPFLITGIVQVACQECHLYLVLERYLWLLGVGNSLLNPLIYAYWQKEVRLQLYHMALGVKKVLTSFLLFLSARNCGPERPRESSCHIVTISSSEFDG
Assay: In vitro cyclic AMP assay (Cisbio HTRF) in HEK293 cells transfected with human GPR119
Type: cell-based
Details: 1 h, % Induction @ 10 μM, cAMP, Table I
Experimental: A. In Vitro Cyclic AMP Assay: cAMP measurements were done using a Cisbio dynamic 2 HTRF kit (Cisbio, Bedford, Mass.) according to the manufacturer's protocol. […] After 24 h, transfected cells were harvested, counted and plated at 1000 cells/5 ul in a black 384 welled small volume plate. […] HRTF ratio was measured on a microplate reader (BMG Labtech., Germany) at an excitation wavelength of 337 nm and emission wavelengths of 665 and 620 nm with an integration time of 400 μsec. […]
The reader will find reported activation at 10 µM values listed item by item below.
Write it as a number; the unit % goes unstated.

CC(C)(C)OC(=O)N1CCC(c2nc3cc(-c4ccc(S(C)(=O)=O)c(F)c4)ccc3o2)CC1 : 59.2
CC(C)(C)OC(=O)N1CCC(c2nc3cc(-c4ccc(C(N)=O)c(Cl)c4)ccc3o2)CC1 : 73.9
CC(C)OC(=O)N1CCC(c2nc3cc(-c4ccc(-n5cnnn5)cc4F)ccc3o2)CC1 : 68.6
CC(C)(C)OC(=O)N1CCC(c2nc3cc(-c4ccc(-n5cnnn5)cc4)ccc3o2)CC1 : 70.1
NC(=O)c1ccc(-c2ccc3oc(C4CCN(c5ncc(F)cn5)CC4)nc3c2)cc1F : 38.7

CC(C)(C)OC(=O)N1CCC(c2nc3ccc(-c4ccc(S(C)(=O)=O)cc4F)cc3o2)CC1 has a reported activation at 10 µM of 73.2

CCC(CC)OC(=O)N1CCC(c2nc3cc(-c4ccc(-n5cnnn5)cc4F)ccc3o2)CC1 has a reported activation at 10 µM of 63.4

CCc1cnc(N2CCC(c3nc4cc(-c5ccc(S(C)(=O)=O)cc5F)ccc4[nH]3)CC2)nc1 has a reported activation at 10 µM of 55.4
